- Assay Comment: Natriuretic polypeptide receptor (hNpr1) antagonism - Pilot counterscreen GloSensor control cell line (AID 1347045)
- Test Conditions: HEK293 cGMP GloSensor cells, SNP-stimulated luminescence, 20 min; series mostly up to 38.3 µM
Inconclusive results are not listed. Calls of active or inactive are those of the source. The call rests on the fitted dose curve.
Possible outcomes: active, inactive

{"Compound": "N#C/C(=C\\c1ccc(O)c(O)c1)C(=O)c1ccc(O)c(O)c1", "Class": "inactive"}
{"Compound": "Nc1nc(Cl)nc2c1ncn2[C@@H]1O[C@H](CO)[C@@H](O)[C@H]1O", "Class": "inactive"}
{"Compound": "O=C1O/C(=C/Br)CCC1c1cccc2ccccc12 (stereo not drawn)", "Class": "active"}

* * *

- Assay Comment: qHTS for differential inhibitors of proliferation of Plasmodium falciparum line W2 (AID 1883);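 further: parasites grown with compound for 72 h before lysis and staining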
- Test Conditions: Plasmodium falciparum W2 proliferation inhibition; series mostly up to 28.7 µM
Records with an inconclusive call do not appear. Calls of active or inactive are those of the source. The call rests on the fitted dose curve; in most records, active means well fitted curve in the direction sought with a large enough effect; inconclusive means small, poorly fitted or top-dose-only effect, or another doubt; inactive means no such curve, though single readings can be large or run the other way.
Possible outcomes: 1.0 for active, 0.0 for inactive

{"Compound": "O=C(O)CNC(=O)C(CS)Cc1ccccc1 (stereo not drawn)", "Class": 0.0}
{"Compound": "O=C(O)CCCC[C@@H]1CCSS1", "Class": 0.0}
{"Compound": "N.N.O=C(O)C1(C(=O)O)CCC1.[Pt]", "Class": 1.0}
{"Compound": "O=C(Nc1ccccc1)c1cc([N+](=O)[O-])ccc1Cl", "Class": 1.0}
{"Compound": "Oc1ccc(C2CNCc3sccc32)cc1O (stereo not drawn)", "Class": 1.0}
{"Compound": "COc1cc2nc(N3CCN(C(=O)OCc4ccccc4)C(C(=O)NC(C)(C)C)C3)nc(N)c2cc1OC (stereo not drawn)", "Class": 1.0}
{"Compound": "O=C(O)CC[C@@H](C(=O)O)N1C(=O)c2ccccc2C1=O", "Class": 0.0}
{"Compound": "CN[C@H](CC(C)C)C(=O)N[C@H]1C(=O)N[C@@H](CC(N)=O)C(=O)N[C@H]2C(=O)N[C@H]3C(=O)N[C@H](C(=O)N[C@H](C(=O)O)c4cc(O)cc(O)c4-c4cc3ccc4O)[C@H](O)c3ccc(c(Cl)c3)Oc3cc2cc(c3O[C@@H]2O[C@H](CO)[C@@H](O)[C@H](O)[C@H]2O[C@H]2C[C@](C)(N)[C@H](O)[C@H](C)O2)Oc2ccc(cc2Cl)[C@H]1O", "Class": 0.0}
{"Compound": "COc1ccccc1N1CCN(CCCCNS(=O)(=O)c2cccc3c(N(C)C)cccc23)CC1", "Class": 1.0}
{"Compound": "N#C/C(=C\\c1c[nH]c2ccccc12)C(=O)c1ccc(O)c(O)c1", "Class": 1.0}
{"Compound": "COc1cccc(C(=O)NCCN2CCN(c3ccc(Cl)cc3)CC2)c1", "Class": 1.0}
{"Compound": "CC(=O)N[C@H](C(=O)O)C(C)(C)SN=O", "Class": 0.0}
{"Compound": "O=S(=O)(c1cccc2c(I)cccc12)N1CCCNCC1", "Class": 1.0}
{"Compound": "O=C(O)c1cc(=O)c2c(Cl)cc(Cl)cc2[nH]1", "Class": 0.0}
{"Compound": "COc1cc(C(O)CO)ccc1OS(=O)(=O)O (stereo not drawn)", "Class": 0.0}
{"Compound": "CCCCN1CCC(n2c(=O)[nH]c3ccccc32)CC1", "Class": 1.0}
{"Compound": "CN1CCC[C@H]1c1cccnc1", "Class": 0.0}
{"Compound": "CN(C)C(N)=NCCC[C@H](N)C(=O)O", "Class": 0.0}
{"Compound": "C#CCN1C(C)=C(C(=O)OC)C(c2cccc([N+](=O)[O-])c2)C(C(=O)OCC)=C1C (stereo not drawn)", "Class": 1.0}
{"Compound": "c1cnc2c(c1)ccc1cccnc12", "Class": 1.0}
{"Compound": "O=c1[nH]c2ccccc2n1CCCN1CCN(C(c2ccccc2)c2ccccc2)CC1", "Class": 1.0}
{"Compound": "S=C(S)OC1CC2CC1C1CCCC21 (stereo not drawn)", "Class": 0.0}
{"Compound": "Cc1ccc(O)c(N=Nc2ccccc2)n1", "Class": 1.0}
{"Compound": "N[C@@H](CC(=O)O)C(=O)O", "Class": 0.0}
{"Compound": "CN(C)c1nc(N)c(C(=O)N=C(N)N)nc1Cl", "Class": 1.0}
{"Compound": "COc1ccccc1CNCCCCCCNCCCCCCCCNCCCCCCNCc1ccccc1OC", "Class": 1.0}
{"Compound": "O=C(/C=C/c1ccc(O)c(O)c1)OCCc1ccccc1", "Class": 1.0}
{"Compound": "CC(=O)SCC[N+](C)(C)C", "Class": 0.0}
